Measured values drawn from ChEMBL document CHEMBL1144293 for this set.

ASSAY_COMMENT: Cmax value in rat at single dose of 30 mg/kg oral dose
Assay type: ADME, organism-based
Parameters: dose 30 mg/kg, route oral
CONDITION_LABEL: in vivo
READOUT_TYPE: Cmax (ng/mL)
Answers are plain numbers, in ng/mL.

The recorded Cmax for `C[C@@H]1CN(c2ncccc2Cl)CCN1c1nc2ccc(C(C)(C)C)cc2[nH]1` is 300

----------
TESTED_ON: Transient receptor potential cation channel subfamily V member 1 (Homo sapiens, UniProt Q8NER1)
Sequence (Q8NER1 whole entry): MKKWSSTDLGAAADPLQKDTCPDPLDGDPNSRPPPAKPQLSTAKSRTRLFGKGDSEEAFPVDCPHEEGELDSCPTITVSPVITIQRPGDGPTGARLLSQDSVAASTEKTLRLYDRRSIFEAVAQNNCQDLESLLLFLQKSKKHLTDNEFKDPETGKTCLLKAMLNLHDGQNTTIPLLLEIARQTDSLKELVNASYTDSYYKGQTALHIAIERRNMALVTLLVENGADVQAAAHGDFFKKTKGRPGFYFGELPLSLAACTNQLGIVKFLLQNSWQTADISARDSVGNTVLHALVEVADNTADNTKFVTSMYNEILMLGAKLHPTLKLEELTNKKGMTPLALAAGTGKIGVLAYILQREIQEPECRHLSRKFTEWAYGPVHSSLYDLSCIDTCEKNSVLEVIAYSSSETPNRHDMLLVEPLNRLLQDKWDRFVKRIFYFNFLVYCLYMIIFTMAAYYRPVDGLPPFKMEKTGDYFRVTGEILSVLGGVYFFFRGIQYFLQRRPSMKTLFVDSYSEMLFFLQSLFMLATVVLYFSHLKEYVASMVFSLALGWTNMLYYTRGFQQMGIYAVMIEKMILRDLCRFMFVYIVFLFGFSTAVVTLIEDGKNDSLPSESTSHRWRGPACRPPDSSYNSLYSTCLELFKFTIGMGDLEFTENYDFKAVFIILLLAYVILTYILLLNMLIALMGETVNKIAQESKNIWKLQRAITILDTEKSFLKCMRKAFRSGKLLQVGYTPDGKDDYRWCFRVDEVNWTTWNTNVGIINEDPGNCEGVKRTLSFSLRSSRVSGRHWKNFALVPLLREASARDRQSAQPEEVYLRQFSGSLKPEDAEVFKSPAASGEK
ASSAY_COMMENT: Antagonist activity in pH 5.5-induced FLIPR assays in HEK293 cells expressing human TRPV1
Assay type: functional, cell-based
pIC50: −log10 of the molar value.
READOUT_TYPE: pIC50

# SMILES_STRUCTURE, pIC50
measured = [
    ("C[C@@H]1CN(c2nsnc2Cl)CCN1c1nc2ccc(C(C)(C)C)cc2[nH]1", "< 5.00"),
]

For every listed record, write down its pIC50.
1. Cc1cc2nc(N3CCN(c4ncccc4Cl)CC3)n(C)c2cc1C
2. Cc1cc2nc(N3CCN(c4ncccc4Cl)C[C@@H]3C)[nH]c2cc1C
3. CC(C)(C)c1ccc2oc(N3CCN(c4ncccc4Cl)CC3)nc2c1

< 4.60
< 4.60
< 5.00

----------
TESTED_ON: UniProtKB Q8NER1
ASSAY_COMMENT: Antagonist activity in capsaicin-induced FLIPR assays in HEK293 cells expressing human TRPV1
Type: functional, cell-based
READOUT_TYPE: pIC50
Answers are plain numbers, as −log10 of the molar value.

For every listed record, write down its pIC50.
1. C[C@@H]1CN(c2ncccc2Cl)CCN1c1nc2ccc(C(C)(C)C)cc2[nH]1
2. COc1ccc2nc(N3CCN(c4ncccc4Cl)C[C@H]3C)[nH]c2c1
3. C[C@@H]1CN(c2ncccc2C(F)(F)F)CCN1c1nc2ccc(C(C)(C)C)cc2[nH]1
4. Cc1cc2nc(N3CCN(c4ncccc4Cl)C[C@H]3C)[nH]c2cc1C
5. CC(C)(C)c1ccc2oc(N3CCN(c4ncccc4Cl)CC3)nc2c1
6. C[C@H]1CN(c2ncccc2Cl)CCN1c1nc2ccc(C(C)(C)C)cc2[nH]1

[7.04, 6.18, 7.49, 6.95, 5.67, 6.02]

The recorded pIC50 for `Cc1cc2nc(N3CCN(c4ncccc4Cl)CC3)n(C)c2cc1C` is 5.26
